- System: T47D
- procedure-text: NCI tumour cell line growth inhibition, 48 h
Activity calls are given as the source filed them. Cut-off read from the data, not from the text of the source: active = GI50 up to about 1.1 µM and inactive = higher.
Classes used: TRUE (active), FALSE (inactive)

compound	discrete-label
C[Si](C)(C)c1ccc(-c2c3ccc(-c4cc(Br)cc(Br)c4)nc3nc3nc(-c4cc(Br)cc(Br)c4)ccc23)cc1	FALSE
COc1cccc(/N=N/N2CCCC2)c1	FALSE
CCCc1ccc(OCC(=O)N/N=C/c2c(-c3ccccc3)[nH]c3ccccc23)cc1	FALSE
COC1(C2c3ccccc3CCN2C(=O)OC(C)(C)C)C(=O)C(c2ccccc2)=C1N(C)C (stereo not drawn)	FALSE
COc1ccccc1Nc1nc(N)nc(N)c1N=O	FALSE
COc1ccc2c(c1)C1=NCCN(C)c3ccc([N+](=O)[O-])c(c31)N2	FALSE
CC1=C(C(=O)OC(C)C)C(c2ccccc2C(F)(F)F)C(C(=O)OC(CO[N+](=O)[O-])CO[N+](=O)[O-])=C(C)N1 (stereo not drawn)	FALSE
O=C1NC(c2cccc3ccccc23)Nc2ccc(Cl)cc21 (stereo not drawn)	FALSE
COc1ccc2[nH]c3c(C)c4ccnc(NCCCN(C)CCCNC(=O)NCCCN(C)CCCNc5nccc6c(C)c7[nH]c8ccc(OC)cc8c7c(C)c56)c4c(C)c3c2c1	TRUE
[N-]=[N+]=NC1=C(N=[N+]=[N-])c2cccc3cccc(c23)C1=O	FALSE
C=C(C(=O)OC)c1cc2ccccc2n1S(=O)(=O)c1ccccc1	FALSE
Oc1ccc(NCc2cc(O)ccc2O)cc1	FALSE
Cc1nnc2ccccc2c1O	FALSE
NCCCc1c(-c2ccccc2)[nH]c(N)nc1=O	FALSE
COC(=O)c1ccccc1/C=C1\Cc2cc(C)c(C)cc2C1=O	FALSE
Fc1ccc2c(c1)nc1n2C(c2c(Cl)cccc2Cl)SC1 (stereo not drawn)	FALSE
CCN(CC)C1Oc2cc3c(cc2C(c2cccc(OC)c2OC)C1C)OCO3 (stereo not drawn)	FALSE
CN1CC=C(c2cccn2C)CC1	FALSE
O=[N+]([O-])C(=C(N1CCOCC1)N1CCOCC1)/C(Cl)=C(\Cl)[N+](=O)[O-]	FALSE
CCCCCC#CCOC(=O)C(=[N+]=[N-])P(=O)(c1ccccc1)c1ccccc1	FALSE
O=C(CSc1ncccn1)N/N=C/c1ccccc1OCc1ccccc1	FALSE
COC(=O)C1CC2(C)C=CC1N(C(=O)OCc1ccccc1)C2 (stereo not drawn)	FALSE
COc1ccc(CC(C)NCC(O)c2ccc(O)c(NC=O)c2)cc1 (stereo not drawn)	FALSE
CC(=O)OCC1OC(SC2=NC(=O)CS2)C(OC(C)=O)C(OC(C)=O)C1OC(C)=O (stereo not drawn)	FALSE
O=c1[nH]c2nc3ccccc3c(=O)n2/c1=C/c1cccs1	FALSE
CN(CCNCc1cn(C)c2c1ccc1ccccc12)CCNCc1cn(C)c2c1ccc1ccccc12	FALSE
Cc1ccccc1NC(=O)O/N=C(\Cl)C(C)C	FALSE
CC(C)(C)OC(=O)CC(NC(=O)OC(C)(C)C)C(=O)N[C@@H]1CCCC[C@H]1C(=O)OCc1ccccc1 (stereo partly drawn)	FALSE
C[n+]1c(-c2ccc(NC(=O)c3ccc(C(=O)Nc4ccc(-c5cn6ccccc6[n+]5C)cc4)cc3)cc2)cn2ccccc21	FALSE
OC1(c2ccccc2)c2ccccc2N=C2NCCN21 (stereo not drawn)	FALSE
Nc1c(S(=O)(=O)O)cc(Nc2cccc(S(N)(=O)=O)c2)c2c1C(=O)c1ccccc1C2=O	FALSE
O=[N+]([O-])c1cccc(/C=N/NC2=CS(=O)(=O)C=C2)c1	FALSE
CC1(C)CC2C(/C1=N/O)C1(C)CCCC2(C)C1O (stereo not drawn)	FALSE

Sourced from ChEMBL document CHEMBL1201862
